test system: E. faecalis; assay: MIC by broth microdilution (aerobic pathogens), test strain 7; assay type: cell-based; settings: Enterococcus faecalis
readout: MIC (µg/mL)
Only the number, expressed in µg/mL, is required.

>  <compound>
C/C=C(\NC(=O)c1csc(-c2csc(-c3ccc4c(n3)-c3csc(n3)[C@H]([C@@H](C)O)NC(=O)c3csc(n3)[C@H](C(C)C)NC(=O)c3csc(n3)/C(=C/C)NC(=O)[C@H]([C@@H](C)O)NC(=O)c3csc-4n3)n2)n1)C(=O)NCCCN1C(=O)CNC1=O [Compound 40]

>  <tested-on>
E. faecalis

>  <measurement-units>
µg/mL

>  <MIC>
0.25

$$$$

We next turn to a different compound, shown below.
Return reported MIC; argument: C/C=C1\NC(=O)[C@H]([C@@H](C)O)NC(=O)c2csc(n2)-c2ccc(-c3nc(-c4nc(C(=O)NC5(C(=O)NCCN6C(=O)CNC6=O)CC5)cs4)cs3)nc2-c2csc(n2)[C@H]([C@@H](C)O)NC(=O)c2csc(n2)[C@H](C(C)C)NC(=O)c2csc1n2 [Compound 5]
0.25

---

System: S. epidermis^MR
Assay: MIC by broth microdilution (aerobic pathogens), test strain 6
Format: cell-based, Methicillin resistant Staphylococcus epidermidis
Conditions: Staphylococcus epidermidis
Method: The antibacterial activity of the compounds of Examples 1 to 48 of the present invention against aerobic pathogens were evaluated by measuring the minimum concentration of the antibiotic capable of inhibiting bacterial growth by 90% compared to the growth of the non-drug treated control group. MIC was measured by the broth microdilution method based on CLSI standards [Reference: Clinical and Laboratory Standards Institute Document. […]
Catalogue of molecules with associated MIC
Only the number, expressed in µg/mL, is required.

Completed entries (count: 3):
>  <molecule>
C/C=C1\NC(=O)[C@H]([C@@H](C)O)NC(=O)c2csc(n2)-c2ccc(-c3nc(-c4nc(C(=O)NC5(C(=O)NN6CC(=O)NC6=O)CC5)cs4)cs3)nc2-c2csc(n2)[C@H]([C@@H](C)O)NC(=O)c2csc(n2)[C@H](C(C)C)NC(=O)c2csc1n2

>  <tested-on>
S. epidermis^MR

>  <measurement-units>
µg/mL

>  <MIC>
1

$$$$
>  <molecule>
C/C=C1\NC(=O)[C@H]([C@@H](C)O)NC(=O)c2csc(n2)-c2ccc(-c3nc(-c4nc(C(=O)NC5(C(=O)NN6CC(=O)N(CC(=O)OC)C6=O)CC5)cs4)cs3)nc2-c2csc(n2)[C@H]([C@@H](C)O)NC(=O)c2csc(n2)[C@H](C(C)C)NC(=O)c2csc1n2

>  <tested-on>
S. epidermis^MR

>  <measurement-units>
µg/mL

>  <MIC>
1

$$$$
>  <molecule>
C/C=C1\NC(=O)[C@H]([C@@H](C)O)NC(=O)c2csc(n2)-c2ccc(-c3nc(-c4nc(C(=O)NC5(C(=O)NCCCN6C(=O)NC(C)C6=O)CC5)cs4)cs3)nc2-c2csc(n2)[C@H]([C@@H](C)O)NC(=O)c2csc(n2)[C@H](C(C)C)NC(=O)c2csc1n2 (stereo partly shown)

>  <tested-on>
S. epidermis^MR

>  <measurement-units>
µg/mL

>  <MIC>
0.25

$$$$

We next turn to a different molecule, shown below.
Return reported MIC; argument: C/C=C(\NC(=O)c1csc(-c2csc(-c3ccc4c(n3)-c3csc(n3)[C@H]([C@@H](C)O)NC(=O)c3csc(n3)[C@H](C(C)C)NC(=O)c3csc(n3)/C(=C/C)NC(=O)[C@H]([C@@H](C)O)NC(=O)c3csc-4n3)n2)n1)C(=O)NCCCN1C(=O)CNC1=O
0.25
